Each recorded value in this set is attributed to patent US20260053904A1.

# target.of.assay: T1, recombinant human EpCAM extracellular domain (human, UniProt P16422 24-265)
# T1 construct: extracellular domain; Plate-coated antigen of the ELISAs; also called human EpCAM ECD; recombinant EpCAM antigen
# T1 sequence (looked up): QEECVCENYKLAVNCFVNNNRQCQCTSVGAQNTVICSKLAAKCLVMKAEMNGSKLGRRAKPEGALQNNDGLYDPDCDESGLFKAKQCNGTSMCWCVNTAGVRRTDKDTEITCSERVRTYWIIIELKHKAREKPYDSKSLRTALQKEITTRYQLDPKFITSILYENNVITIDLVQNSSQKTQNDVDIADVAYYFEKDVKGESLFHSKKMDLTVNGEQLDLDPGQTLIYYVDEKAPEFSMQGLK
# assay: ELISA, human EpCAM, pH 6.0
# Method: The binding activities of the humanized conditionally active anti-EpCAM antibodies to human EpCAM were measured by ELISA, using the template antibody BAP-1-5-01-06, as a control. The EC50 values of the humanized conditionally active anti-EpCAM antibodies for binding to human EpCAM at pH 6.0 and pH 7.4 are summarized in Table 5. The ELISA assay was performed using the following protocol: [0388] […]
Mark Condition met for EC50 under 0.01 µg/mL, Condition not met if at or over.

binder	discrete.label
BAP-105.4-02-01 (antibody, V domains shown, Humanized) VH: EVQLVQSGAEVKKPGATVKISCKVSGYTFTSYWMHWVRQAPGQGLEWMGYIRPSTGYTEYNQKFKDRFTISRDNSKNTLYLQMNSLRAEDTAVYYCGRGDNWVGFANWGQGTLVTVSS VL: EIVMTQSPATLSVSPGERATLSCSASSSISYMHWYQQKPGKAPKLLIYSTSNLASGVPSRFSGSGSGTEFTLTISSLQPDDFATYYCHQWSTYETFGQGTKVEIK	Condition not met
BAP-105.4-01-02 (antibody, V domains shown, Humanized) VH: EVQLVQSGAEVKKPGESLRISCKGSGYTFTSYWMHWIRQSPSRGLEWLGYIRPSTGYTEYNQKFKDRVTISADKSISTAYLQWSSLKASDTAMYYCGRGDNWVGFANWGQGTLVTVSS VL: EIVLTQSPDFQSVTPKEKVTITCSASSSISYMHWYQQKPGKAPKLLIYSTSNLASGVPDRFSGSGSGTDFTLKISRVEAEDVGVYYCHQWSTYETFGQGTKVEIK	Condition not met
BAP-105-01-01 (antibody, V domains shown, Non-conditionally active control; also called template antibody (WT)) VH: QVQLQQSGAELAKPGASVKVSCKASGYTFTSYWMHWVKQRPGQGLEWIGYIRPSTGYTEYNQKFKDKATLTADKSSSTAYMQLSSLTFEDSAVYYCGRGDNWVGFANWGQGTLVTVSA VL: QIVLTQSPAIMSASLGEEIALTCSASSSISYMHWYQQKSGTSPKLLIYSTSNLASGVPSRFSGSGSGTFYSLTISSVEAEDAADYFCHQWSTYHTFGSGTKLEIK	Condition met
BAP-105.4-03-02 (antibody, V domains shown, Humanized) VH: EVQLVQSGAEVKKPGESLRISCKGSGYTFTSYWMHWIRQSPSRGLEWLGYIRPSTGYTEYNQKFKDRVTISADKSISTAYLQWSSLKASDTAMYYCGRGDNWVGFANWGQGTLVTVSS VL: EIVMTQSPATLSVSPGERATLSCSASSSISYMHWYQQKPGKAPKLLIYSTSNLASGIPPRFSGSGYGTDFTLTINNIESEDAAYYFCHQWSTYETFGQGTKVEIK	Condition not met
BAP-105.4-01-05 (antibody, V domains shown, Humanized) VH: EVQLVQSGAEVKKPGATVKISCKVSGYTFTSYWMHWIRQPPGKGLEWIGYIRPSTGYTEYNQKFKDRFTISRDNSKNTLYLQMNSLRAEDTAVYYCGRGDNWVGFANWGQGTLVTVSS VL: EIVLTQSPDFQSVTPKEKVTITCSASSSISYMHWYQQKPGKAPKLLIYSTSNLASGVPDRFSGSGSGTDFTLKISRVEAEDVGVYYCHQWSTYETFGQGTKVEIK	Condition not met
